Data provenance is the supplement of paper PMC10127200.

Tested on: HEPG2
Test: Euclidean distance of Cell Painting phenotypic profile (signed KS, 77 features) to DMSO centroid (dimensionless distance); 5 or 10 uM (library dependent); higher = stronger phenotypic change vs DMSO (phenoactivity)
Conditions: 48 h
Where a name gives a salt, the structure may show the parent alone.
Cut-off 0.6 on Euclidean distance, inclusive. At or above means T; below means F.

Worked examples follow.
Nc1[nH]cnc2ncnc1-2 [Adenine HCl] ... F
CC(=O)O[C@]1(C(C)=O)CC[C@H]2[C@@H]3C=C(Cl)C4=CC(=O)CC[C@]4(C)[C@H]3CC[C@@]21C [Chlormadinone acetate] ... T
Cc1c(C(=O)Nc2ccc(N3C[C@@H](C)O[C@@H](C)C3)nc2)cccc1-c1ccc(OC(F)(F)F)cc1 [LDE225 (NVP-LDE225.Erismodegib)] ... T
CC1CCN(CC[C@H]2CCCN2S(=O)(=O)c2cccc(O)c2)CC1 ... T
CCN(CC)CCOc1ccc2c(c1)C(=O)c1cc(OCCN(CC)CC)ccc1-2 [Tilorone dihydrochloride] ... T

Here is the next item to consider.
Task: Given O=c1[nH]cnc2c1ncn2[C@@H]1O[C@H](CO)[C@@H](O)[C@H]1O [Inosine] , state whether its Euclidean distance is at least 0.6.
Result: F
